Target: T1, human GLP-1 receptor (human, UniProt P43220 24-463)
T1 construct: whole, on cells; Used as purified membranes of the transfected hamster cells, not whole cells; also called hGLP-1
Assay: SPA, 2.0% vs 0.005% HSA
*1 amine or outer side, *2 acyl side, *3 side chain or, on linkers, in order; H or OH if unused. Where no end group is shown, it is not given here. Side-chain parts run from the residue outwards. The star is where a group is joined. Decanoyl(10-(4-HOOC-PhO)) = O=C(O)c1ccc(OCCCCCCCCCC(=O)*)cc1; γGlu = O=C(O)[C@H](CCC(=O)[*:2])N[*:1]; 13‑carboxytridecanoyl = C14 diacid; AEEA = NCCOCCOCC(=O)O

| Binder | ratio IC50 high HSA/IC50 low HSA |
| --- | --- |
| HAEGTFTSDVSK([AEEA-AEEA-γGlu-Decanoyl(10-(4-HOOC-PhO))])YLEEQAVREFIAK([AEEA-AEEA-γGlu-Decanoyl(10-(4-HOOC-PhO))])LVRGRG [GLP-1 derivative of Example 75: [Lys18,Glu22,Val25,Arg26,Lys31,Arg34]-GLP-1-(7-37)-peptide] | > 1 |
| HAEGTFTSDVSK([AEEA-AEEA-γGlu-γGlu-13‑carboxytridecanoyl])YLEEQAAK([AEEA-AEEA-γGlu-γGlu-13‑carboxytridecanoyl])EFIAWLVRGRG (Name prints Lys without its number (Lys18)) [GLP-1 derivative of Example 97: [Lys,Glu22,Arg34]-GLP-1-(7-37)-peptide] | > 1 |
